Recorded TGI by entry
- Test system: ACHN renal
- TEST: NCI tumour cell line growth inhibition, 48 h

Solved entries:
CN1CCN(Cc2ccc(NC(=O)c3[nH]ncc3Nc3ncnc4c3CCC4)cc2)CC1    9.09 µM
Cc1cc(-c2nc3ccc(O)cc3s2)ccc1N    > 100 µM
FC(F)(F)C1(C(F)(F)F)OC(Cl)(Cl)C(Cl)(Cl)O1    > 10 µM

Below: the item to evaluate.
Problem: Report TGI for COc1ccc(/C=N/n2c(C)n[nH]c2=O)cc1 please.
Result: > 100 µM

====

Recorded TGI by entry
- Tested on: HCT-116 colon
- TEST: NCI tumour cell line growth inhibition, 48 h
Lab book: enter the figure in µM, no units written.

Cc1cc(N/N=C/c2nc(-c3ccccc3)oc2C)c2cc(Cl)ccc2n1    3.39
O=Cc1[nH]c2ccccc2c1Br    38.1
O=C(/C(Cl)=C/c1ccccc1)c1ccccc1    2.78

Below: the item to evaluate.
Problem: Report TGI for C#CC[C@H](c1nc2cc(Cl)ccc2c(=O)n1Nc1ccccc1)N(CCCN)C(=O)c1cccc(Cl)c1F please.
Result: 1.3

====

- System: TK-10 renal
- TEST: NCI tumour cell line growth inhibition, 48 h
Recorded TGI by entry
Lab book: enter the figure in µM, no units written.

Solved entries:
Cc1c(Cl)cccc1NC(=O)c1sc2nc3c(cc2c1N)CCCCCC3    47.4
O=[N+]([O-])c1cc(Br)cc2c1[nH]c1ccc(Br)cc12    8.48
Cc1nc(Nc2ccc(F)c(Cl)c2)sc1C(=O)O    4.09
CCS(=O)(=O)c1ccc(OC)c(Nc2nccc(N(C)c3ccc4c(C)[nH]nc4c3)n2)c1    14.5
CCOC(=O)NC(=O)c1cn(CCCOC(=O)CCCCCCCCC(=O)OCCCn2cc(C(=O)NC(=O)OCC)c(=O)[nH]c2=O)c(=O)[nH]c1=O    57.9
COc1ccccc1/C=C1/Sc2scc(CC(=O)Nc3ccccc3)[n+]2C1=O    74.3

Problem: Report TGI for CCOC(=O)C1(Cc2ccccc2)CCN(C(=O)c2ccccc2)C2C1C2(Cl)Cl (stereo not given) please.
Result: 59.8

Problem: Report TGI for CCOP(=O)(OCC)C(Cc1ccccc1)N=C(c1ccccc1)c1ccccc1 (stereo not given) please.
Result: 23.6

====

- Test system: HCT-116 colon
- TEST: NCI tumour cell line growth inhibition, 48 h
Recorded TGI by entry

Solved entries:
C/C=C/OC1C(C2COC(C)(C)O2)OC2OC(C)(C)OC21 (stereo not given)    > 100 µM
Cc1ccc(C2=Nc3ccccc3NC(=O)C2)cc1    > 100 µM
COc1ccc2nc(NC(=O)C(=O)CC(=O)c3ccc(Cl)cc3)sc2c1    > 100 µM
CCOC(=O)/C=C/[C@H](O[Si](c1ccccc1)(c1ccccc1)c1ccccc1)C(C)(C)C    > 31.6 µM
c1cncc(C(Nc2cccc3cccnc23)Nc2cccc3cccnc23)c1    > 100 µM

Problem: What TGI appears in the records for this compound with HCT-116 colon? CC1(C)OC2CN(C(=O)OCc3ccccc3)C(CO)C2O1 (stereo not given)
Result: > 100 µM

Problem: What TGI appears in the records for this compound with HCT-116 colon? O=C(/C=C/c1ccc(Cl)c(Cl)c1)CCN1CCN(CCC(=O)/C=C/c2ccc(Cl)c(Cl)c2)CC1
Result: 23.8 µM

Problem: What TGI appears in the records for this compound with HCT-116 colon? Nc1ncc(-c2ccc(C(F)(F)F)cc2)c(NC2CCCCCC2)n1
Result: > 100 µM

Problem: What TGI appears in the records for this compound with HCT-116 colon? CN(C)CCNC(=O)c1cc([N+](=O)[O-])ccn1
Result: 61.4 µM

Problem: What TGI appears in the records for this compound with HCT-116 colon? CCOC(=O)NNC1(SC)NC(=O)c2c(cc(Cl)oc2=O)O1 (stereo not given)
Result: 3.08 µM
